Target: UniProtKB Q01959
Experiment: Inhibition of radioligand [125I]RTI-55 binding to human Dopamine transporter in clonal cells
Binary label based on Kd with cut-off 20 nM: below gives 1, not below gives 0.

Fc1ccc(C(OCCN2CCN(C/C=C/c3ccc(Cl)cc3)CC2)c2ccc(F)cc2)cc1 | 0

# check: Kd < 20 nM for Fc1ccc(CN(CCCN2CCN(CCCc3ccccc3)CC2)c2ccc(F)cc2)cc1
1

Find out if reported Kd for Fc1ccc(CN(CCN2CCN(CCCc3ccccc3)CC2)c2ccccn2)cc1 is less than 20 nM
0

###

Target: Sodium-dependent dopamine transporter (Homo sapiens)
Sequence (Q01959 whole entry): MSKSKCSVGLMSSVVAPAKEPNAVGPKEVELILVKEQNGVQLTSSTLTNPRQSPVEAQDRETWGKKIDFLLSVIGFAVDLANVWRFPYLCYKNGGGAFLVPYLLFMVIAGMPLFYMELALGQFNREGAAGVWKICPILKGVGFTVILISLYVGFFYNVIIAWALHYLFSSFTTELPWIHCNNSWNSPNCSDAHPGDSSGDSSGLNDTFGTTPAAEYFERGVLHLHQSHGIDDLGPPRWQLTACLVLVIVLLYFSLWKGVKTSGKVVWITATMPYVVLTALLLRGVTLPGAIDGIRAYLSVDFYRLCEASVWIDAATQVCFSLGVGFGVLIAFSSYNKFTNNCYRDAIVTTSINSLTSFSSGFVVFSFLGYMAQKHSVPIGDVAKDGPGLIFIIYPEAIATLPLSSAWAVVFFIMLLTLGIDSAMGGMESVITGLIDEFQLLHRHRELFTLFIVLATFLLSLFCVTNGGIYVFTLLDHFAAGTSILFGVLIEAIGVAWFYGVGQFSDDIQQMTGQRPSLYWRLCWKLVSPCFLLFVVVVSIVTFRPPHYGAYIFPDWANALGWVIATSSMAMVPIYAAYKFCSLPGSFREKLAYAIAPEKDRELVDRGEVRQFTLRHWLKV
Assay: Inhibition of radioligand [125I]RTI-55 binding to human Dopamine transporter in clonal cells
pKd: −log10 of the molar value.
If the reported pKd equals or exceeds 7, assign Fulfilled. If not, assign Not fulfilled.

Here are 5 molecules together with their reported answers.
Fc1ccc(CN(CCN2CCN(CCCc3ccccc3)CC2)c2ccc(F)cc2)cc1 | Fulfilled
C(=C\c1ccccc1)/CN1CCN(CCN(Cc2ccccc2)c2ccccn2)CC1 | Not fulfilled
Fc1ccc(C(OCCN2CCN(C/C=C/Cc3ccccc3)CC2)c2ccc(F)cc2)cc1 | Fulfilled
O=C(/C=C/c1c(Cl)cccc1Cl)N1CCN(CCOC(c2ccc(F)cc2)c2ccc(F)cc2)CC1 | Not fulfilled
Fc1ccc(CCCN2CCN(CCOC(c3ccccc3)c3ccc(F)cc3)CC2)cc1 (stereo not drawn) | Fulfilled

Could you please find out whether O=C(CCCCN1CCN(CCCc2ccccc2)CC1)N(Cc1ccccc1)c1ccccc1 has pKd that meets 7 or exceeds it?
Fulfilled

Quick check: does C(=C\c1ccccc1)/CN1CCN(CCN(Cc2ccccc2)c2ccccc2)CC1 have pKd greater than or equal to 7?
Not fulfilled
